Biological target: Cytochrome P450 2C9 (Homo sapiens)
Assay: Cytochrome P450 Family 2 Subfamily C Member 9 (CYP2C9) small molecule antagonists: luciferase reporter qHTS assay (AID 1671198); further: nearly all actives have a fitted effect of over 50% in size
Conditions: P450-Glo CYP2C9 enzyme assay, luciferin luminescence; series mostly up to 115 µM
Source text: U.S. Tox21 Program National Center for Advancing Translational Sciences [NCATS] U.S. Environmental Protection Agency [EPA] National Institutes of Environmental Health Sciences [NIEHS] National Toxicology Program [NTP] U.S. Food and Drug Administration [FDA] […] The luciferin products formed are detected with a luciferin detection reagent, and the amount of light produced is proportional to CYP activity. […]
Results filed as inconclusive are left out. Calls of active or inactive are those of the source. The call rests on the fitted dose curve; in most records, active means well fitted inhibition curve with a large enough effect in the repeat runs; inconclusive means weak or mixed curves; inactive means no such curve, though single readings can be large or run the other way.
Classes used: T for active, F for inactive

INSERT INTO assay_data (compound, cat) VALUES
  ('CC(C)NCC(O)c1ccccc1Cl (configuration not stated)', 'F'),
  ('C#CCC1=C(C)C(OC(=O)C2C(C=C(C)C)C2(C)C)CC1=O (configuration not stated)', 'T'),
  ('CC(C)[C@@H](Nc1ccc(C(F)(F)F)cc1Cl)C(=O)OC(C#N)c1cccc(Oc2ccccc2)c1 (some centres not stated)', 'T'),
  ('C=C(C)C(=O)[O][Sn]([CH2]CCC)([CH2]CCC)[CH2]CCC', 'T'),
  ('CN1CCc2cc(Cl)c(O)cc2[C@H]2c3ccccc3CC[C@@H]21', 'F'),
  ('CCC1(CC)C(=O)N=C(O)NC1=O', 'F'),
  ('N#Cc1sc2c(=O)c3ccccc3c(=O)c=2sc1C#N', 'T'),
  ('C=CC(=C)C', 'F'),
  ('Nc1c(Cl)c(Cl)c(Cl)c(Cl)c1Cl', 'F'),
  ('CO/N=C(\C(=O)OC)c1ccccc1CO/N=C(\C)c1cccc(C(F)(F)F)c1', 'T'),
  ('CCCCc1ccccc1', 'F'),
  ('COP(=O)(OC)Oc1ccc([N+](=O)[O-])cc1', 'F');

* * *

target: Progesterone receptor (Homo sapiens) (UniProt P06401); assay: qHTS assay to identify small molecule antagonists of the progesterone receptor (PR) signaling pathway (AID 1346795); settings: PR-UAS-bla HEK293T, beta-lactamase FRET ratio, 16 h; series mostly up to 92.4 µM
Sequence (P06401 whole entry, looked up): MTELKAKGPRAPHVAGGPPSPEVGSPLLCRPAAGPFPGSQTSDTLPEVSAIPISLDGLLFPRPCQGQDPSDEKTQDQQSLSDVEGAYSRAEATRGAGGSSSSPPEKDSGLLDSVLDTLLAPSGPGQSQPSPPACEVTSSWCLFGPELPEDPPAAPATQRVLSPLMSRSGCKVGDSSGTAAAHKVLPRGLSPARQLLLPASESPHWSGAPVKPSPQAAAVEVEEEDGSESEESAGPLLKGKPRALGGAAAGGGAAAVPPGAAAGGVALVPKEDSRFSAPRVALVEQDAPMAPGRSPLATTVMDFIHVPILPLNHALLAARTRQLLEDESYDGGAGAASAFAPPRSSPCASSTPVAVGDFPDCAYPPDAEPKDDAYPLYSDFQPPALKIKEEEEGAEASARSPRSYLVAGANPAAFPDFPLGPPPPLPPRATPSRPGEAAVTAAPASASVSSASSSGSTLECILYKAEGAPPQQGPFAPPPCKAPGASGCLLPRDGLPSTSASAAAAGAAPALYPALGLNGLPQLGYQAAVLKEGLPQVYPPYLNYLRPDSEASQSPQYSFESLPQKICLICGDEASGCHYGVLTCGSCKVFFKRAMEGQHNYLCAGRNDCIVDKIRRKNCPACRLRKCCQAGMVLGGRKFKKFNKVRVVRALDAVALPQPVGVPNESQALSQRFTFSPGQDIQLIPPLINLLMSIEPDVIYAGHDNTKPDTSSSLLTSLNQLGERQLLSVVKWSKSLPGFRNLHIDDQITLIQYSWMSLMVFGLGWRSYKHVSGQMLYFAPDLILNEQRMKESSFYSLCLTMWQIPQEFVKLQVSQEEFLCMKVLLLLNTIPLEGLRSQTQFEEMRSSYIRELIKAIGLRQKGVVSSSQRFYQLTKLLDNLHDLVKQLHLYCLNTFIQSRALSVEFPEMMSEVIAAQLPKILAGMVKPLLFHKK
Records with an inconclusive call do not appear. Active and inactive are the calls of the source. The call rests on the fitted dose curve; in most records, active means well fitted inhibition curve with a large enough effect in the signal ratio in the repeat runs (not every such curve was filed as active); inconclusive means weak or mixed curves; inactive means flat fitted curve, though single readings scatter; the % refers to the signal ratio.
Classes used: active, inactive

INSERT INTO measurements (compound, cat) VALUES
  ('NC(=O)C(Cl)Cl', 'inactive'),
  ('O=[N+]([O-])C(Br)Br', 'inactive'),
  ('CSC(C)(C)/C=N/O', 'inactive'),
  ('CCCCCCCCCCCCCCn1cc[n+](C)c1', 'inactive'),
  ('ClCBr', 'inactive'),
  ('Oc1ccc([C@H]2CNCc3c2ccc(O)c3O)cc1O', 'inactive'),
  ('CCCCCCCc1ccc(O)cc1', 'active'),
  ('CCCCC(CC)COC(=O)OOC(C)(C)C (configuration not stated)', 'inactive'),
  ('Cc1cnc2c(C(=O)O)c(Cl)ccc2c1', 'inactive'),
  ('CC(=O)[O-].CC(=O)[O-].O.O.[Zn+2]', 'inactive'),
  ('CCOP(=O)(OCC)Oc1cc(C)nc(C(C)C)n1', 'inactive'),
  ('CCOC(=O)CCN(SN(C)C(=O)Oc1cccc2c1OC(C)(C)C2)C(C)C', 'inactive'),
  ('FC(F)C(F)(F)OCC(Cn1cncn1)c1ccc(Cl)cc1Cl (configuration not stated)', 'active'),
  ('O=P(Cl)(Cl)Cl', 'inactive'),
  ('O=Cc1ccccc1', 'inactive'),
  ('Clc1cc(Cl)c(-c2cc(Cl)c(Cl)cc2Cl)cc1Cl', 'active'),
  ('N#CCCl', 'inactive'),
  ('CSC1=N[C@@](C)(c2ccccc2)C(=O)N1Nc1ccccc1', 'active'),
  ('CCCC[N+]1(C)CCCC1 (tested in a mixture with another compound)', 'inactive'),
  ('C=CCBr', 'inactive'),
  ('COP(=S)(OC)Oc1ccc([N+](=O)[O-])c(C)c1', 'active'),
  ('CC1(C)C(C=C(Cl)Cl)C1C(=O)OC(C#N)c1ccc(F)c(Oc2ccccc2)c1 (configuration not stated)', 'active'),
  ('CCOP(=O)(OCC)Oc1nc(Cl)c(Cl)cc1Cl', 'active'),
  ('Nc1cc(Cl)ccc1Cl', 'inactive'),
  ('O=c1[nH]c(Cl)c(Cl)cc1Cl', 'inactive'),
  ('C1=CCC=C1', 'inactive'),
  ('CC(=O)C(Cl)C(=O)N(C)C (configuration not stated)', 'inactive'),
  ('CN=C=O', 'inactive'),
  ('Clc1ccc(C(Cl)(Cl)Cl)cc1Cl', 'inactive'),
  ('CC1CCCC1', 'inactive'),
  ('CC1CN1 (configuration not stated)', 'inactive'),
  ('ClC(Cl)C(Cl)(Cl)Cl', 'inactive');

* * *

test: qHTS assay to identify small molecule agonists of the estrogen related receptor (ERR) signaling pathway from Tox21 library (AID 1224849); conditions: ERR reporter cell line, ONE-Glo luciferase, 18 h; at 92.4 µM (top of the series) unless noted; further: on the % scale 0 is the no-effect control and ±100 the full control effect; nearly all actives have a fitted effect of over 15% in size
measured.endpoint: activity change, positive = activation (%)

INSERT INTO results (compound, test_result) VALUES
  ('CC(C)=CC1C(C(=O)OC(C#N)c2cccc(Oc3ccccc3)c2)C1(C)C (stereo unspecified)', -9.74),
  ('Cc1c([N+](=O)[O-])c(C)c([N+](=O)[O-])c(C(C)(C)C)c1[N+](=O)[O-]', -4.01),
  ('CCCCCON=O', -5.1),
  ('Oc1cccc(Cl)c1Cl', -30.2),
  ('COP(=O)(OC)O/C(=C\Cl)c1cc(Cl)c(Cl)cc1Cl', -68.1),
  ('CC(O)C(=O)[O][Hg][c]1ccccc1 (stereo unspecified)', -80.9);

* * *

test: qHTS assay to identify small molecule agonists of the hypoxia (HIF-1) signaling pathway - cell viability counter screen (AID 1224844); details: HRE-bla ME-180 viability, CellTiter-Glo luminescence, 17 h; series mostly up to 76.8 µM; further: nearly all actives have a fitted effect of over 50% in size
Inconclusive results are not listed. Activity calls are given as the source filed them. Calls come from the whole dose curve.
Classes used: active, inactive

INSERT INTO assay_data (compound, cat) VALUES
  ('CCCN', 'inactive'),
  ('O=[N+]([O-])[O-].[Tl+]', 'inactive'),
  ('COP(=S)(NC(C)C)Oc1ccc(C)cc1[N+](=O)[O-] (configuration not stated)', 'inactive'),
  ('N#CSCc1ccccc1', 'inactive'),
  ('O=NN(CCO)CCO', 'inactive'),
  ('O=[N+]([O-])c1cc(C(F)(F)F)c(Cl)c([N+](=O)[O-])c1Nc1ncc(C(F)(F)F)cc1Cl', 'active'),
  ('O=[N+]([O-])c1ccccc1-c1ccccc1', 'inactive'),
  ('OCC(Br)CBr (configuration not stated)', 'inactive'),
  ('CNN', 'inactive'),
  ('C=CC(=O)[O][Sn]([CH2]CCC)([CH2]CCC)[CH2]CCC', 'active'),
  ('C[C@]12CC[C@H]3[C@@H](CCC4=CC(=O)CC[C@@H]43)[C@@H]1CC[C@@H]2OC(=O)CCc1ccco1', 'inactive'),
  ('Oc1cc(Cl)cc(Cl)c1', 'inactive'),
  ('Clc1ccc(C(Cl)(Cl)Cl)cc1Cl', 'active'),
  ('CC(C)N(C(=O)SC/C(Cl)=C/Cl)C(C)C', 'inactive'),
  ('CC(Cl)CCl (configuration not stated)', 'inactive'),
  ('C#CC1(O)CCCCC1', 'inactive'),
  ('CC1CCCC1', 'inactive'),
  ('Oc1cc(Cl)c(Cl)c(Cl)c1Cl', 'inactive'),
  ('CCOP(=S)(NC(C)C)Oc1ccccc1C(=O)OC(C)C (configuration not stated)', 'active'),
  ('CCCCn1cc[n+](C)c1 (tested in a mixture with another compound)', 'inactive'),
  ('CN/C(=N\[N+](=O)[O-])NCc1cnc(Cl)s1', 'inactive'),
  ('Cc1ccc(C)c2ccccc12', 'inactive'),
  ('O=C(Nc1ccc(F)cc1F)c1cccnc1Oc1cccc(C(F)(F)F)c1', 'inactive'),
  ('COc1ccc2c(c1OC)C(=O)O[C@@H]2[C@H]1c2cc3c(cc2CCN1C)OCO3', 'inactive'),
  ('CC[N+]1(CC)CCC(OC(=O)C(O)(c2ccccc2)c2ccccc2)C1 (configuration not stated)', 'inactive'),
  ('O.O.O.O.O.O.O=S(=O)([O-])[O-].[Ni+2]', 'inactive'),
  ('CCC(C)Nc1c([N+](=O)[O-])cc(C(C)(C)C)cc1[N+](=O)[O-] (configuration not stated)', 'inactive');

* * *

Target: Cytochrome P450 3A4 (Homo sapiens) (UniProt P08684)
Sequence (P08684 whole entry, looked up): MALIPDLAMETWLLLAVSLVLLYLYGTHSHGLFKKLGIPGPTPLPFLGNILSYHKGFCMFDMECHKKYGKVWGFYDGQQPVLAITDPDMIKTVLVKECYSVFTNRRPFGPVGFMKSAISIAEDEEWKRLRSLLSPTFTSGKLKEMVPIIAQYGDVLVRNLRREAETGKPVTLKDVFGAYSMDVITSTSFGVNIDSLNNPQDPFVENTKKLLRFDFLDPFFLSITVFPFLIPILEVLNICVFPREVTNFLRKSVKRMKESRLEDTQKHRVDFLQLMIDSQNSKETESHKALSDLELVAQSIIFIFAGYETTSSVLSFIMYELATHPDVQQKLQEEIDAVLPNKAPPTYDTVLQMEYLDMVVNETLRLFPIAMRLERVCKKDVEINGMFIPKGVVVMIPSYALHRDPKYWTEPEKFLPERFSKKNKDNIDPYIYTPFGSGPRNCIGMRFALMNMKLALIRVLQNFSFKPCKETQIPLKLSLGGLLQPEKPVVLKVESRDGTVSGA
Experiment: Cytochrome P450 Family 3 Subfamily A Member 4 (CYP3A4) small molecule antagonists: luciferase reporter qHTS assay (AID 1671201); further: nearly all actives have a fitted effect of over 50% in size
Conditions: P450-Glo CYP3A4 enzyme, luciferin luminescence, 1 h; series mostly up to 115 µM
From the text: National Center for Advancing Translational Sciences [NCATS] U.S. Environmental Protection Agency [EPA] National Institutes of Environmental Health Sciences [NIEHS] National Toxicology Program [NTP] U.S. Food and Drug Administration [FDA] Cytochrome P450 (CYP) enzymes are membrane-bound hemeproteins that play a key role in metabolism of drugs and xenobiotics. […] The luciferin products formed are detected with a luciferin detection reagent, and the amount of light produced is proportional to CYP activity. […]
Records with an inconclusive call do not appear. Calls of active or inactive are those of the source. Calls come from the whole dose curve; as a rule, active = well fitted inhibition curve with a large enough effect in the repeat runs; inconclusive = weak or mixed curves; inactive = no such curve, though single readings can be large or run the other way.
Classes used: true (1) (active), false (0) (inactive)

INSERT INTO assay_data (compound, cat) VALUES
  ('CCCCCCCc1ccc(O)cc1', 'false (0)'),
  ('O=C(N[C@H]1N=C(c2ccccc2F)c2cccc3c2N(CC3)C1=O)c1cc2ccccc2[nH]1', 'false (0)'),
  ('Brc1cccc(-c2ccccc2)c1', 'false (0)'),
  ('CN1[C@@H]2CC[C@H]1CC(O)C2 (stereo partly specified)', 'false (0)'),
  ('[O]=[Cr](=[O])([OH])[O][Cr](=[O])(=[O])[OH]', 'false (0)'),
  ('FC(F)C(F)(F)OCC(Cn1cncn1)c1ccc(Cl)cc1Cl (stereo unspecified)', 'true (1)');
